- assaySummary: Drug level in tumor tissue of human A375 cells xenografted nude mouse at 25 mg/kg, po after 6 hrs
- Format: ADME, organism-based, Neoplasm, A-375
- Parameters: dose 25 mg/kg, route oral
- cond: read-out: Drug uptake
readoutType: concentration at 6 h (µM)
Unit µM implied. Number only.

Give a short answer stating reported concentration at 6 h for CN1C[C@@H]2C[C@H]1CN2c1cc(F)c(-c2ccnc3c(-c4cccc5[nH]ncc45)c(-c4ccncc4)nn23)c(F)c1 .
6.6

* * *

- assaySummary: Half life in nude mouse liver microsomes
- Type: ADME, Microsome
readoutType: half-life (min)
Give just the numeric value; min need not be written.

For the molecule CC(C)CN1C[C@@H]2C[C@H]1CN2c1cc(F)c(-c2ccnc3c(-c4cccc5[nH]ncc45)c(-c4ccncc4)nn23)c(F)c1 , give its measured half-life value.
4

Output half-life of CC(C)N1C[C@@H]2C[C@H]1CN2c1cc(F)c(-c2ccnc3c(-c4cccc5[nH]ncc45)c(-c4ccncc4)nn23)c(F)c1
17

Given the molecule Fc1cc(N2C[C@@H]3C[C@H]2CN3C2CCC2)cc(F)c1-c1ccnc2c(-c3cccc4[nH]ncc34)c(-c3ccncc3)nn12 , write its reported half-life.
5

* * *

- assaySummary: Clearance in nude mouse
- Format: ADME, organism-based
- cond: in vivo
readoutType: clearance (mL/min/kg)
Form entry: value (mL/min/kg) — number only.

Give the measured clearance for CN1C[C@@H]2C[C@H]1CN2c1cc(F)c(-c2ccnc3c(-c4cccc5[nH]ncc45)c(-c4ccncc4)nn23)c(F)c1
23

* * *

Serine/threonine-protein kinase B-raf (Homo sapiens, UniProt P15056) data, read-out IC50
Sequence (P15056 whole entry): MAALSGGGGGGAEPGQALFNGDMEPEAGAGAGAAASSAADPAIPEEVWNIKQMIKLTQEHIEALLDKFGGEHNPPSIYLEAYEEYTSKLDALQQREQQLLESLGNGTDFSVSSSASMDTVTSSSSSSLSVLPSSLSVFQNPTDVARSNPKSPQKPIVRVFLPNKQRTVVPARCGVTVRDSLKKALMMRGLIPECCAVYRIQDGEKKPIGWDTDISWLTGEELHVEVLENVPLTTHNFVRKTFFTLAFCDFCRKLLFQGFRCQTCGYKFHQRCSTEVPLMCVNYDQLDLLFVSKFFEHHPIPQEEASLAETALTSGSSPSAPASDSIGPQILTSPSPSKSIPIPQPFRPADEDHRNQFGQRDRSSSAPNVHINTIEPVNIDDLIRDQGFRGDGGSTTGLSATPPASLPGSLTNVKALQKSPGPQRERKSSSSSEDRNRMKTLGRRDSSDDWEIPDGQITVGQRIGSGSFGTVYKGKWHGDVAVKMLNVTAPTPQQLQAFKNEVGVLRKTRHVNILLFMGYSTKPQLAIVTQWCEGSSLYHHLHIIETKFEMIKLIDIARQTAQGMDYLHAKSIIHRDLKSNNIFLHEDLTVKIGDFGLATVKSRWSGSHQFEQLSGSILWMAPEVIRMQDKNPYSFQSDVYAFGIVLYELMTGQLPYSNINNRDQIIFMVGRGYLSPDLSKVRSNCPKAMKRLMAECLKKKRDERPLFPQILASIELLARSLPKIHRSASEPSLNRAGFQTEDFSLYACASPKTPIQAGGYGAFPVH
Enter your answer as a number in nM; do not include the unit.

Identify measured IC50 associated with Fc1cc(CN2C3COCC2COC3)ccc1-c1ccnc2c(-c3cccc4[nH]ncc34)c(-c3ccncc3)nn12
0.77

Supply reported IC50 belonging to this compound: CN1C[C@@H]2CC[C@H]1CN2c1ccc(-c2ccnc3c(-c4cccc5[nH]ncc45)c(-c4ccncc4)nn23)cc1
0.71

For CN1C[C@@H]2C[C@H]1CN2c1ccc(-c2ccnc3c(-c4cccc5[nH]ncc45)c(-c4ccncc4)nn23)c2ccccc12 , write its IC50.
1

* * *

- assaySummary: Oral bioavailability in nude mouse at 10 mg/kg
- Format: ADME, organism-based
- cond: in vivo, read-out: Activity
readoutType: bioavailability (%)
I only need the number, in %, no unit after it.

Recall and state the measured bioavailability for CN1C[C@@H]2C[C@H]1CN2c1cc(F)c(-c2ccnc3c(-c4cccc5[nH]ncc45)c(-c4ccncc4)nn23)c(F)c1 .
54

* * *

- System: A-375
- assaySummary: Growth inhibition of human A375 cells after 4 days by MTT assay
- Type: functional, cell-based
- cond: A-375, 96 h
readoutType: pIC50
To interpret pIC50, take it as minus log10 of a concentration measured in moles per litre.

Output measured pIC50 for this item: CN1C[C@@H]2C[C@H]1CN2c1ccc(-c2ccnc3c(-c4cccc5[nH]ncc45)c(-c4ccncc4)nn23)c2ccccc12
4.60

Look up and state reported pIC50 for CN1C[C@@H]2C[C@H]1CN2c1c(F)c(F)c(-c2ccnc3c(-c4cccc5[nH]ncc45)c(-c4ccncc4)nn23)c(F)c1F
7.15

State its pIC50 for this compound: Cc1cc(N2C[C@@H]3C[C@H]2CN3C)ccc1-c1ccnc2c(-c3cccc4[nH]ncc34)c(-c3ccncc3)nn12
6.86

Give the value of pIC50 reported for the following: c1cc(-c2c(-c3ccncc3)nn3c(-c4ccc(CN5C[C@@H]6C[C@H]5CN6)cc4)ccnc23)c2cn[nH]c2c1
5.02

Provide one value: measured pIC50 of CN1C[C@@H]2C[C@H]1CN2c1ccc(-c2ccnc3c(-c4ccc(F)c5[nH]ncc45)c(-c4ccncc4)nn23)cc1
7.17

Find the measured pIC50 of CC(C)CN1C[C@@H]2C[C@H]1CN2c1cc(F)c(-c2ccnc3c(-c4cccc5[nH]ncc45)c(-c4ccncc4)nn23)c(F)c1 and report it.
7.05

Check the records and state pIC50 for CN1C[C@@H]2CC[C@H]1CN2c1ccc(-c2ccnc3c(-c4cccc5[nH]ncc45)c(-c4ccncc4)nn23)c(F)c1
6.93
